# key: entry, value: pIC50
- SUBJECT OF TEST: Neuropilin-1 (Homo sapiens) (UniProt O14786)
- Sequence (O14786 whole entry, looked up): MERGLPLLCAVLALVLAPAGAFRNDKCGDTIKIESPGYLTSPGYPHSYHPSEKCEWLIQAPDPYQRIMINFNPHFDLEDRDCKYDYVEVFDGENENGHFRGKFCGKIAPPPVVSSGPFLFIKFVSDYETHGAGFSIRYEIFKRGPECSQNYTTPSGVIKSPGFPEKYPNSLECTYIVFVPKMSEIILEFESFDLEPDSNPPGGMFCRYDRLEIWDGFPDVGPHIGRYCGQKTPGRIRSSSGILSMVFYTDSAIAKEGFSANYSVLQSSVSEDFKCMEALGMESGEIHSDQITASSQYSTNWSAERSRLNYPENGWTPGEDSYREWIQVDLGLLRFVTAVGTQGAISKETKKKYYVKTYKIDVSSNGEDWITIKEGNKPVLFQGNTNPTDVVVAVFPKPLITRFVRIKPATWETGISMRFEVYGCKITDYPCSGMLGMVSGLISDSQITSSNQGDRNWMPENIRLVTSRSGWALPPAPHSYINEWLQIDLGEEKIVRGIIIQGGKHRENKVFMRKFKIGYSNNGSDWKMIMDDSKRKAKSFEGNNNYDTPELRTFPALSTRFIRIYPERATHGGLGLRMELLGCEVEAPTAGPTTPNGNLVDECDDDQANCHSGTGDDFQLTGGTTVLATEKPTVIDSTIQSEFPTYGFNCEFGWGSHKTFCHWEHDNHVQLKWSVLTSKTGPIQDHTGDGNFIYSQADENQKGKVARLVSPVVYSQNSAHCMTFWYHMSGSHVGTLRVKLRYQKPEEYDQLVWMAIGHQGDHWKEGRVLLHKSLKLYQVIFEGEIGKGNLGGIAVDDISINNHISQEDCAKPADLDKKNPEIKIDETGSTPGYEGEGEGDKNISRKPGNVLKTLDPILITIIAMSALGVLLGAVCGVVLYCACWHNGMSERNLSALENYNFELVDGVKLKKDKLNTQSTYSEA
- TEST: NRP-1 b1b2 CendR peptide binding inhibitors, dose response, biochemical, FP and AlphaScreen panel (AID 651650)
- EXPERIMENTAL PARAMETERS: NRP-1 b1b2 / RPARPAR peptide binding, FP or AlphaScreen; AlphaScreen, run 1; individual panel run IC50
pIC50: −log10 of the molar value.

CCOCCCNC(=O)C(c1ccc(C)cc1)N(Cc1cccs1)C(=O)c1ccccc1O (stereo unspecified) ... < 4.00
COc1ccc(-c2cc(C)no2)cc1S(=O)(=O)NCc1cccc(C)c1 ... < 4.00
N#Cc1ccc(COC(=O)c2cnc(Cl)c(Cl)c2)cc1 ... < 4.00
NCCCC[C@H]1CN=C(N)N1CCC12CC3CC(CC(C3)C1)C2 ... 4.30
O=C(Nc1ccc(N2CCOCC2)cc1)c1cc(-n2cnnc2)ccc1Cl ... < 4.00

Here is the next item to consider.
# lookup: pIC50 of `O=C(O)c1cccc(N2C(=O)c3cc([N+](=O)[O-])cc4cc([N+](=O)[O-])cc(c34)C2=O)c1`
< 4.00

Values from PubChem BioAssay AID651650
